Assay: NCI Yeast Anticancer Drug Screen. Data for the bub3 strain (AID 167)
Conditions: S. cerevisiae bub3 mutant strain, at 50.0 µM, stronger effect = higher value
This is part of a sample that, as a whole, favours compounds with a hit. Of some 79,000 tested, about 15% had one in any assay.
quantity: growth inhibition (%)
Could you give me the number in %? Just the number is fine.

CCCCCCCCCCCC(=O)Nc1ccc(C(C)C)cc1	21.2
Oc1ccc2ccccc2c1C=NCc1c(O)ccc2ccccc12	-43.6

Fill in the blank: the reported growth inhibition of NNC(=O)c1ccc(-c2ccc[nH]2)[nH]1 is ____.
-14.4

Lookup O=Cc1c(CO)cc(O)c(O)c1O
2.9

Lookup C/C(=N/NC(N)=O)C(=O)O
-2.95

Lookup COc1cccc(C2c3cc4c(cc3OC(N3CCCC3)C2C)OCO4)c1O (configuration not stated)
12.3

Lookup O=c1[nH]c2cc(Cl)ccc2nc1/C=C(\O)c1ccc(O)cc1
-20

Lookup CC1(C)OS2(OC(C)(C)c3ccccc32)c2ccccc21
6.3

---

# reported growth inhibition; entries follow
Assay: NCI Yeast Anticancer Drug Screen. Data for the bub3 strain (AID 167)
Conditions: S. cerevisiae bub3 mutant strain, at 50.0 µM, stronger effect = higher value
About 79,000 compounds went through this panel and 15% of them were active in at least one assay; those are over-represented in the sample as a whole.
Could you give me the number in %? Just the number is fine.

Fill in the blank: the reported growth inhibition of COC(=O)c1cc2ccccc2n1C is ____.
-6.95

Lookup CCC(=O)Cc1cnccn1
-9.15

---

Test: NCI Yeast Anticancer Drug Screen. Data for the bub3 strain (AID 167)
Settings: S. cerevisiae bub3 mutant strain, at 50.0 µM
About 79,000 compounds went through this panel and 15% of them were active in at least one assay; those are over-represented in the sample as a whole. Active and inactive are the calls of the source. No stated cut-off is given here; in the data, active means growth inhibition above about 70%; inactive means the rest.
Form entry, call: pick from yes (1) for active, no (0) for inactive

Solved cases (3 shown):
O=C1NC(c2cccc3c2OCO3)N=C2Oc3ccccc3C=C12 (stereo unspecified)	no (0)
CC1(C)OC(=O)N=C1c1cccc(Cl)c1	no (0)
COc1ccc(C(O)C2CC(=O)NN=C2C)cc1OC (stereo unspecified)	no (0)

Switching to the query record.
Outcome? CCNC(=O)COc1ccc(Cl)cc1C(C)C
no (0)

---

Assay: NCI Yeast Anticancer Drug Screen. Data for the sgs1 mgt1 strain (AID 161);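 note: 0% = growth of cultures given vehicle only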
Conditions: S. cerevisiae sgs1 mgt1 strain, at 50.0 µM, stronger effect = higher value
The panel holds about 79,000 compounds, 15% with a hit somewhere; the sample as a whole holds those more often.
quantity: growth inhibition (%)
Could you give me the number in %? Just the number is fine.

# count of solved cases: 8
COc1cc(/C=C(\C#N)c2ccccn2)cc(Br)c1O	-3.9
Clc1c(-c2ccccc2)oc2nc3ccccc3nc12	13.6
CCOc1ccccc1NC(=O)CC(=O)N1N=C(C)C(N=Nc2ccccc2C(=O)O)C1=O (centres undefined)	1.6
CCc1[nH]nc(-c2n[nH]c(CC)c2C)c1C	-20.1
CCOC(=N)c1cn(C2OC(CO)C(O)C2O)c2nc[nH]c(=O)c12 (centres undefined)	11.2
C[n+]1c(-c2ccc(/C=N/NC(=O)C(=O)N/N=C/c3ccc(-c4cn5ccsc5[n+]4C)cc3)cc2)cn2ccsc21	86.8
C/C=C1\C(=O)OC2CCN3CCC(COC(=O)C(C)(O)C(C)C1O)C23 (centres undefined)	-24.6
O=c1cc(C(Br)(Br)Br)[nH]c2ccccc12	9.45

Fill in the blank: the reported growth inhibition of Cc1cccc(C)c1C is ____.
9.85

Lookup c1cncc(C2c3[nH]c4ccccc4c3CCN2CCN2CCCCC2)c1 (centres undefined)
-9.4

Lookup O/N=C/c1ccccn1
-5.6

Lookup CC(=O)C1(O)CCC2C3CCC4CC(=O)CCC4(C)C3C(=O)CC21C (centres undefined)
2.25

Lookup CC(O)CCC(O)CCCO (centres undefined)
8.4

Lookup O=S(=O)(c1ccccc1)N1N=C2c3ccccc3CCC[C@H]2C1c1ccccc1 (some centres undefined)
-12.7

Lookup CC(C(O)c1ccccn1)[N+](=O)[O-] (centres undefined)
-7.1

Lookup O=C1CN(c2ccccc2)CC(=O)N2C(c3ccccc3)CCCN12 (centres undefined)
-6.05

Lookup Cc1cc(=O)oc2cc(NC(=O)C(CCCN=C(N)N)NC(=O)OCc3ccccc3)ccc12 (centres undefined)
23.1

Lookup C=CNC(=O)NC(=O)CSc1nnc(-c2ccccc2NC(=O)C(F)(F)F)c(=O)[nH]1
-4
